tested on: TK-10; assay: NCI tumour cell line growth inhibition, 48 h
Calls of active or inactive are those of the source. Cut-off read from the data, not from the text of the source: active = GI50 up to about 1.1 µM and inactive = higher.
Readout Type: GI50

Query :: Would you kindly share the measured GI50 for O=[N+]([O-])c1cc(-c2nc(-c3ccccc3)c(-c3ccccc3)[nH]2)c(O)c([N+](=O)[O-])c1 ?
Result :: 28.5 µM (inactive)

Query :: Now this one: O=C(NCCc1ccccn1)c1ccc2cc(C(=O)N3CC(CCl)c4ccc([N+](=O)[O-])cc43)[nH]c2c1 (stereo unspecified)
Result :: 20.7 µM (inactive)

Query :: Now this one: CSCCCS/C1=C/CCCCCCCCCC1
Result :: > 100 µM (inactive)

Query :: Now this one: COc1ccc(C2Oc3c(cc(O)c(OC)c3C)[C@@H]2C)cc1OC (stereo partly specified)
Result :: > 100 µM (inactive)

Query :: Now this one: C=CCn1c(N)c(C#N)c(C#N)c1-c1ccccc1
Result :: > 100 µM (inactive)

Query :: Now this one: O=C1C=C(NCCc2ccccc2)c2ccccc2C1=O
Result :: 14.2 µM (inactive)

Attribution: ChEMBL document CHEMBL1201862
